- Experimental target: σ1 receptor (Homo sapiens, UniProt Q99720)
- Sequence (Q99720 whole entry, species assumed): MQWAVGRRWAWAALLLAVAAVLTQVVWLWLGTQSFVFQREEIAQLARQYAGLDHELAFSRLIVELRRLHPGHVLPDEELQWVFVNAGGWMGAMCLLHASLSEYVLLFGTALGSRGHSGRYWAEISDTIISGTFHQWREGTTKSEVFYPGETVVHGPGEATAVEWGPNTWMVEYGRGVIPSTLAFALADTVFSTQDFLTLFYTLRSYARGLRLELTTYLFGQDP
- Test protocol: Competition binding versus σ1 receptor
- Conditions used: read-out: Ki (nM) σ1
Assay endpoint: Ki (nM)

The examples below pair each entry with its known result.
{"Compound": "Cc1ccc(CC2CN(CC3(O)CCSCC3)C2)cc1", "Unit annotation": "nM", "Ki": 4.6}
{"Compound": "Cc1ccc([C@H]2CCN(CC3(O)CCC3)C2)c(C)c1", "Unit annotation": "nM", "Ki": 2.9}
{"Compound": "Fc1c(CN2CCN(C[C@@H]3CCCO3)CC2)ccc(Br)c1Cl", "Unit annotation": "nM", "Ki": 1.6}

1. O[C@@H](COCc1ccccc1F)CN1CC(Cc2ccccc2C(F)(F)F)C1
2. N/C(=N\Cc1ccc(F)cc1Br)NCC1CCC1
3. CC1CCC(O)(CN2CC(Cc3ccc(F)c(F)c3)C2)CC1 (stereo not drawn)
4. Cc1ccc(CCC2CCN(C(=O)CN3C[C@@H]4CC[C@@H](O)[C@H]4C3)CC2)cc1
Query string: Your job: order these 4 records by Ki, ascending. // rank by listing labels in the order requested
Result string: 3, 4, 2, 1
(3: 4.9 nM, 4: 16.2 nM, 2: 32.7 nM, 1: 53 nM)

* * *

- Experimental target: human σ2 receptor (Homo sapiens)
- Sequence (Q5BJF2 whole entry): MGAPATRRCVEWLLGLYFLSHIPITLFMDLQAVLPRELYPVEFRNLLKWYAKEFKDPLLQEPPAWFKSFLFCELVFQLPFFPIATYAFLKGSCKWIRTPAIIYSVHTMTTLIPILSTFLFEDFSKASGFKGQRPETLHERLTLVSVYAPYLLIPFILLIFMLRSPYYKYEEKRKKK
- Test protocol: Competition binding of [3H]-DTG in Expi293 membranes expressing σ2 receptor
- Conditions used: read-out: σ2 Ki (affinity)
In this section, each of the compounds is paired with its reported pKi.
Please keep in mind that pKi is minus log10 of the molar concentration; only the number is needed.

{"Compound": "OC(CCc1ccccc1)CN1CC=C(c2c[nH]c3ncccc23)CC1 (stereo not drawn)", "Experimental target": "human σ2 receptor (Homo sapiens)", "pKi": 8.30}

For the next question, use this compound.
Query string: Look up and report measured pKi for this entry: C1=C(c2c[nH]c3ncccc23)CCN(CCCc2ccccc2)C1
Result string: 8.43

* * *

- Experimental target: human σ2 receptor (Homo sapiens)
- Test protocol: Competition binding of [3H]-DTG in Expi293 membranes expressing σ2 receptor
- Conditions used: ratio of σ1 Ki to σ2 Ki
Assay endpoint: Selectivity (σ1/σ2)

{"Compound": "C[C@@H](C(=O)N(C)Cc1cccc(F)c1)N1CC=C(c2c[nH]c3ncccc23)CC1", "Reading": 43}

I. N/C(=N\Cc1ccc(F)cc1Br)NCC1CCC1
II. O[C@@H](COCc1ccccc1F)CN1CC(Cc2ccccc2C(F)(F)F)C1
III. Cc1ccc(CCC2CCN(C(=O)CN3C[C@@H]4CC[C@@H](O)[C@H]4C3)CC2)cc1
IV. Cc1ccc(CC2CN(CC3(O)CCSCC3)C2)cc1
V. O[C@@]1(CNCc2cccc3c2OCC3)CCc2ccccc21
Query string: Order field: Selectivity (σ1/σ2) | Direction: descending (largest first) // rank by listing labels in the order requested
Result string: V, II, I, III, IV
(V: 18, II: 11.3, I: 4.9, III: 1.6, IV: 0.1)

* * *

- Experimental target: UniProt Q5BJF2
- Test protocol: Competition binding of [3H]-DTG in Expi293 membranes expressing σ2 receptor
- Conditions used: read-out: Ki (nM) σ2; competition with 10 nM [3H]-DTG
Assay endpoint: Ki (nM)

The examples below pair each entry with its known result.
{"Compound": "C[C@@H](c1ccccc1)[C@@H](O)CN1CCC(c2c[nH]c3ncccc23)CC1 [ZINC000450573233]", "Ki (nM)": 4.3}
{"Compound": "CC(C)(NCc1ccc2c(c1)OCCO2)[C@H](O)c1ccccc1 [ZINC000895657866]", "Ki (nM)": 21.4}
{"Compound": "Cc1ccc(CC2CN(CC3(O)CCSCC3)C2)cc1 [ZINC000656714762]", "Ki (nM)": 67.8}
{"Compound": "CC1CCC(O)(CN2CC(Cc3ccc(F)c(F)c3)C2)CC1 (stereo not shown) [ZINC000548355486]", "Ki (nM)": 2.4}
{"Compound": "Cc1ccc([C@H]2CCN(CC3(O)CCC3)C2)c(C)c1 [ZINC000348332392]", "Ki (nM)": 33.7}
{"Compound": "N/C(=N\\Cc1ccc(F)cc1Br)NCC1CCC1 [ZINC000170908795]", "Ki (nM)": 6.7}
{"Compound": "C[C@@H](C(=O)N(C)Cc1cccc(F)c1)N1CC=C(c2c[nH]c3ncccc23)CC1 [ZINC000533478938]", "Ki (nM)": 34.5}
{"Compound": "CC[C@@H](CO)N1CCC(CCc2ccc(F)cc2F)CC1 [ZINC001460312963]", "Ki (nM)": 5.2}

I. O[C@@]1(CNCc2cccc3c2OCC3)CCc2ccccc21 [ZINC000921927365]
II. O[C@@H](COCc1ccccc1F)CN1CC(Cc2ccccc2C(F)(F)F)C1 [ZINC001254761628]
III. Fc1c(CN2CCN(C[C@@H]3CCCO3)CC2)ccc(Br)c1Cl [ZINC001237901728]
IV. CC(C)CCO[C@@H]1CCN(C[C@H]2CC3(CCCCC3)CO2)C1 [ZINC001196519317]
V. Cc1ccc(CCC2CCN(C(=O)CN3C[C@@H]4CC[C@@H](O)[C@H]4C3)CC2)cc1 [ZINC000544117725]
Query string: Your job: order these 5 records by Ki, ascending. // rank by listing labels in the order requested
Result string: IV, II, V, III, I

* * *

- Experimental target: human σ2 receptor (Homo sapiens)
- Test protocol: Competition binding of [3H]-DTG in Expi293 membranes expressing σ2 receptor
- Conditions used: ratio of σ1 Ki to σ2 Ki
Assay endpoint: Selectivity (σ1/σ2)

The examples below pair each entry with its known result.
{"Compound": "CC[C@@H](CO)N1CCC(CCc2ccc(F)cc2F)CC1", "Selectivity (σ1/σ2)": 0.3}
{"Compound": "Cc1ccc([C@H]2CCN(CC3(O)CCC3)C2)c(C)c1", "Selectivity (σ1/σ2)": 0.1}
{"Compound": "CC(C)(NCc1ccc2c(c1)OCCO2)[C@H](O)c1ccccc1", "Selectivity (σ1/σ2)": 46}

a. Fc1c(CN2CCN(C[C@@H]3CCCO3)CC2)ccc(Br)c1Cl
b. CC(C)CCO[C@@H]1CCN(C[C@H]2CC3(CCCCC3)CO2)C1
c. C[C@@H](c1ccccc1)[C@@H](O)CN1CCC(c2c[nH]c3ncccc23)CC1
d. CC1CCC(O)(CN2CC(Cc3ccc(F)c(F)c3)C2)CC1 (stereo not shown)
Query string: Order field: Selectivity (σ1/σ2) | Direction: descending (largest first) // rank by listing labels in the order requested
Result string: c, b, d, a
